assay: Mouse pharmacokinetic analysis; assay type: in vivo; conditions: mouse, plasma; 100 mg/kg PO BID, CD-1 mice
Metric: half-life (min)

CCOc1ccc(-c2nnc([C@H]3C[C@H](NC(=O)c4cccc5nccnc45)C3)n2-c2ccccc2F)nc1 :: 354

Source of measurements: paper PMC9981206
